tested on: ICR male mice; experiment: Toxicity test by continuous administration for three days in mice (MTD); format: in vivo; conditions: liposome preparation administered from the caudal vein, ICR male mice
endpoint: MTD

input: Find the measured MTD: item O=C(CCCCCCCCCCOc1c(I)cc(I)cc1I)OCC(COC(=O)CCCCCCCCCCOc1c(I)cc(I)cc1I)OCC(=O)N1CCOCC1 [Compound 1A-5-1] , target or system ICR male mice.
output: 800 mg/kg

input: Find the measured MTD: item O=C(CCCCCCCCCCOc1c(I)cc(I)cc1I)OCC(COC(=O)CCCCCCCCCCOc1c(I)cc(I)cc1I)OC(=O)COC(CO)CO [Compound 1A-6-9] , target or system ICR male mice.
output: 800 mg/kg

input: Find the measured MTD: item O=C(CCCCCCCCCCOc1c(I)cc(I)cc1I)OCC(COC(=O)CCCCCCCCCCOc1c(I)cc(I)cc1I)OC(=O)CCCCCN1CCOCC1 [Compound 1A-3-4] , target or system ICR male mice.
output: 1000 mg/kg

input: Find the measured MTD: item O=C(CCCCCCCCCCOc1c(I)cc(I)cc1I)OCC(COC(=O)CCCCCCCCCCOc1c(I)cc(I)cc1I)OC(=O)CCCCN1CCOCC1 [Compound 1A-3-3] , target or system ICR male mice.
output: 1000 mg/kg

input: Find the measured MTD: item O=C(CCCCCCCCCCOc1c(I)cc(I)cc1I)OCC(COC(=O)CCCCCCCCCCOc1c(I)cc(I)cc1I)OC(=O)CCC(=O)N1CCOCC1 [Compound 1A-4-1] , target or system ICR male mice.
output: 1000 mg/kg

input: Find the measured MTD: item O=C(CCCCCCCCCCOc1c(I)cc(I)cc1I)OCC(COC(=O)CCCCCCCCCCOc1c(I)cc(I)cc1I)OC(=O)CN1CCOCC1 [Compound 1A-1-3] , target or system ICR male mice.
output: 800 mg/kg

input: Find the measured MTD: item C[N+](C)(C)CCOP(=O)([O-])OC(COC(=O)CCCCCCCCCCOc1c(I)cc(I)cc1I)COC(=O)CCCCCCCCCCOc1c(I)cc(I)cc1I [Compound 1B-1-3] , target or system ICR male mice.
output: 2000 mg/kg

input: Find the measured MTD: item O=C(CCCCCCCCCCOc1c(I)cc(I)cc1I)OCC(COC(=O)CCCCCCCCCCOc1c(I)cc(I)cc1I)OC(=O)CCCN1CCOCC1 [Compound 1A-3-2] , target or system ICR male mice.
output: 800 mg/kg
